Hey, just so you know, these numbers are from the Human Domainome abundance scans (Beltran et al. 2025).

B1: Myocardin, residues 363 to 406; numbered along this chain, Q8IZQ8 (parent)
chain: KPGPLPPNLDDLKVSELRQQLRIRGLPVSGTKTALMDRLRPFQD

variants of: B1; assay: abundance fitness (aPCA) (normalised: wild type 0, dead -1); higher = more abundant; growth selection in yeast, the domain comes from the species named; details: Homo sapiens
Experimental Readout: abundance fitness
Give bare numbers.

Worked examples, 4 variants total:
>>> print(df.to_string())
                              sequence_data  experimental_readout  reported_value
0  KPGPLPPNLDDLKVSELRQQLRTRGLPVSGTKTALMDRLRPFQD [I23T]     abundance fitness          -0.261
1  KPGPLPPNLDDLKVSELRQQLRIRALPVSGTKTALMDRLRPFQD [G25A]     abundance fitness           -0.39
2  KPGPLPKNLDDLKVSELRQQLRIRGLPVSGTKTALMDRLRPFQD [P7K]     abundance fitness           0.464
3  KPGPLPPNLDDLKVSELRQQLRIRGLPVSGTLTALMDRLRPFQD [K32L]     abundance fitness          -0.784

Okay, here is my list. What is abundance fitness for each of these?
1. KPGPLPPNLDDLKVSELRQQLRIRGLPVSGTKEALMDRLRPFQD [T33E]
2. KPCPLPPNLDDLKVSELRQQLRIRGLPVSGTKTALMDRLRPFQD [G3C]
3. KPGPLPPNLDDLKVDELRQQLRIRGLPVSGTKTALMDRLRPFQD [S15D]
4. KPGPLPPNLDDLKVSELRQQLRIRDLPVSGTKTALMDRLRPFQD [G25D]
5. KPGPLPPNLDDLKVSELRSQLRIRGLPVSGTKTALMDRLRPFQD [Q19S]
6. KPGPLPPNLDDLKVSELRQQLRIRGLAVSGTKTALMDRLRPFQD [P27A]

0.292
-0.792
0.015
-0.246
-0.261
-0.376

Batch lookup, abundance fitness per entry.
1. KPGPLPPNLDDLKVSELRQQLRIRGLPVSGTKTALMGRLRPFQD [D37G]
2. KPGPIPPNLDDLKVSELRQQLRIRGLPVSGTKTALMDRLRPFQD [L5I]
3. KPGPLPPNLDDLKVSELTQQLRIRGLPVSGTKTALMDRLRPFQD [R18T]
4. KPGPLPPCLDDLKVSELRQQLRIRGLPVSGTKTALMDRLRPFQD [N8C]
5. KPGPLPPELDDLKVSELRQQLRIRGLPVSGTKTALMDRLRPFQD [N8E]
6. KPGPLPPNLDDLKVSELRQQLRIRGLPVQGTKTALMDRLRPFQD [S29Q]
7. KPGPLPPNLDDLKVSELRQQLRIRVLPVSGTKTALMDRLRPFQD [G25V]

1. -0.404
2. 0.011
3. -0.388
4. -0.342
5. -0.232
6. 0.006
7. -1.38
